Quick list: fluorescence slope per entry.
Target: Voltage-gated potassium channel subunit beta-2 (Rattus norvegicus)
Assay: inhibitors of rat Kvbeta2 reductase activity – biochemical, NADPH fluorescence, primary screen (AID 622);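 further: slope of raw intensity against log time taken from 70 to 1610 s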
Conditions: recombinant KvBeta, 4-cyanobenzaldehyde reduction, at 10 µM, stronger effect = higher value
Answer field: number only, no words.

Below are worked cases with known answers.
O=C(Cn1cnc2c(oc3ccccc32)c1=O)N1CCN(c2ccccc2)CC1 :: -0.493
CCOc1cccc(OCCOCCN2CCCC2)c1 :: -0.229
CC1(C)O[C@@H]2C[C@H]3[C@@H]4CCC5=CC(=O)C=C[C@]5(C)[C@@]4(F)[C@@H](O)C[C@]3(C)[C@]2(C(=O)CO)O1 :: -0.515
Cc1csc(SCC(=O)NC(=O)NCc2ccccc2)n1 :: -0.407
COc1ccc(-c2cc(C(F)(F)F)nc(SCCC(=O)N3CCOCC3)n2)cc1 :: -0.596
COc1ccc(N2CCN(C(c3cccc(OC)c3OC)c3nnnn3C3CCCC3)CC2)cc1 (stereo unspecified) :: -0.508
CCOC(=O)C1CCN(c2c(NCCCN(CC)c3ccccc3)c(=O)c2=O)CC1 :: -0.43
COc1ccc2c(C(=O)CN(C)C3CCCCC3)c[nH]c2c1 :: -0.561
O=C(Nc1ccncc1)c1cncc(Br)c1 :: -0.243
COc1cccc(-n2nnc3c(=O)n(Cc4cccc(F)c4)cnc32)c1 :: -0.304

What does the data say about its fluorescence slope? Entry: `CCOc1ccc(CCNC(=O)CCc2nc(-c3ccc(OC)cc3)no2)cc1OCC` -0.529

---

Assay: blockers of RIG-like receptor reporter activation – cell-based, Sendai virus stimulus, luciferase, 10K MLSCN set, TLR/RLR signaling modifier project, primary screen (AID 602276);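 further: firefly luciferase from ISG56 promoter only with Renilla not read in this screen; 0% = Sendai virus plus DMSO and 100% = medium plus DMSO without virus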
Details: HEK293 RL24 IRF3 luciferase reporter, at 10 µM, stronger effect = higher value
Quick list: inhibition per entry.
Give a bare numeral; the unit % is implied.

Below are worked cases with known answers.
Cc1ccc(S(=O)(=O)N2CCCC2C(=O)OCc2ccco2)cc1 (stereo unspecified) :: -9.42
COc1cccc(-c2cc(C(F)(F)F)n3nc(N)nc3n2)c1 :: 6.21

What does the data say about its inhibition? Entry: `O=C(Nc1nncs1)c1ccccc1NS(=O)(=O)c1cccs1` -6.81

What does the data say about its inhibition? Entry: `COc1cc(OC)cc(-c2nc3nc(C)c(CCC(=O)O)c(C)n3n2)c1` 21.9

What does the data say about its inhibition? Entry: `CCCCn1c(SCC(=O)c2ccc3c(c2)OCCO3)nnc1-c1ccco1` 6.03

What does the data say about its inhibition? Entry: `CCOC(=O)C1CCN(C(=O)Nc2ccc(Cl)cc2Cl)CC1` 14

What does the data say about its inhibition? Entry: `CC(C)NC(=O)NC(=O)COc1cccc2c1OC(C)(C)C2` 17.1

What does the data say about its inhibition? Entry: `CCOc1ccc(OCC)c2sc(C)nc12` 12.4

What does the data say about its inhibition? Entry: `CN(C)CC(=O)N1c2ccccc2CCc2ccc(NC(=O)c3ccc(N)cc3)cc21` 11.3

What does the data say about its inhibition? Entry: `Cc1cccc2cc(CN(Cc3nnnn3C3CCCC3)C3CCCCC3)c(=O)[nH]c12` 7.22

What does the data say about its inhibition? Entry: Cc1ccsc1C1C2=C(CCCC2=O)Nc2ncnn21 (stereo unspecified) 12.8

---

Assay: reduction of polyQ htt aggregates in cells – imaging, exon1htt(103Q)mCFP cells, high-content imaging, primary screen (AID 483);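 further: compound exposure lasted 3 days before fixation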
Conditions: exon1htt(103Q)mCFP cell line, aggregate imaging, at 2 µM; stronger effect = higher value
Active and inactive are the calls of the source.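 The calls were made as follows: active = visual image review flags a hit and inhibition of aggregation exceeds 20%; inconclusive = visual hit but inhibition at or below 20%; inactive = no hit on visual image review.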
readout type: inhibition of aggregation

CC(C)OC(=O)CSc1nnc(Cc2ccccc2)n1Cc1ccco1 :: -13% (inactive)
C=CCC(Nc1ccco1)c1ccccc1 (centres undefined) :: 3.4% (inactive)
Cc1nnc2ccc(N3CCC4(CC3)OCCO4)nn12 :: 9.6% (inactive)
COc1ccc(C(CNC(=O)CN2C(=O)NC3(CC(C)CC(C)(C)C3)C2=O)N2CCOCC2)cc1 (centres undefined) :: 13.7% (inactive)
COc1cc(C2C(C#N)=C(N)Oc3cc(N)ccc32)cc(OC)c1OC (centres undefined) :: -94.1% (inactive)

What does the data say about its inhibition of aggregation? Entry: `CC(=O)N[C@@H](CS)C(=O)O` 7.3% (inactive)

What does the data say about its inhibition of aggregation? Entry: `CCCCN(C)Cc1c(C)[nH]c2c(Cl)cccc2c1=O` 0.9% (inactive)

What does the data say about its inhibition of aggregation? Entry: `CCSc1nnc(NC(=O)CSc2ncccn2)s1` -3% (inactive)

---

Assay: endothelial E-selectin expression blockers – imaging, HUVEC, immunofluorescence, MLSMR starter and 10KST1 sets, primary screen (AID 487);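 further: 100% = median nuclei count of all wells on the same plate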
Conditions: HUVEC TNFalpha-induced E-selectin immunofluorescence imaging, at 2 µM; measured here: cell number, toxicity
readout type: nuclei count (%)
Give a bare numeral; the unit % is implied.

Below are worked cases with known answers.
Cc1cc(C)n2nc3nc(N4CCCCC4)nc(-c4ccco4)c3c2n1 :: 86.7
Cc1ccccc1OCCN1C(=O)NC2(CCc3ccccc32)C1=O (stereo not drawn) :: 99.4
CCOc1cccc(Oc2ccc(C(F)(F)F)cn2)c1 :: 97.3

What does the data say about its nuclei count? Entry: `CCOc1cc(S(=O)(=O)NCc2ccccn2)c(C)cc1C` 68.1

What does the data say about its nuclei count? Entry: `Cc1ccc(O)c(NC(=O)COc2cc(C)ccc2C)c1` 115

What does the data say about its nuclei count? Entry: `O=C(CCCn1c(=O)c2sccc2n(CC(=O)NCc2ccco2)c1=O)NCc1ccco1` 117

What does the data say about its nuclei count? Entry: `Cc1ccccc1CSCC(=O)c1c(N)n(C)c(=O)n(C)c1=O` 103

What does the data say about its nuclei count? Entry: Cc1cc(O)c(C2(C(F)(F)F)NCCNC2=O)cc1C (stereo not drawn) 63.2

What does the data say about its nuclei count? Entry: `COc1cccc(CNC(=O)CCn2c(=O)oc3ccccc32)c1` 104

---

Molecular target: Muscarinic acetylcholine receptor M4 (Homo sapiens) (UniProt P08173)
Sequence (P08173 whole entry, looked up): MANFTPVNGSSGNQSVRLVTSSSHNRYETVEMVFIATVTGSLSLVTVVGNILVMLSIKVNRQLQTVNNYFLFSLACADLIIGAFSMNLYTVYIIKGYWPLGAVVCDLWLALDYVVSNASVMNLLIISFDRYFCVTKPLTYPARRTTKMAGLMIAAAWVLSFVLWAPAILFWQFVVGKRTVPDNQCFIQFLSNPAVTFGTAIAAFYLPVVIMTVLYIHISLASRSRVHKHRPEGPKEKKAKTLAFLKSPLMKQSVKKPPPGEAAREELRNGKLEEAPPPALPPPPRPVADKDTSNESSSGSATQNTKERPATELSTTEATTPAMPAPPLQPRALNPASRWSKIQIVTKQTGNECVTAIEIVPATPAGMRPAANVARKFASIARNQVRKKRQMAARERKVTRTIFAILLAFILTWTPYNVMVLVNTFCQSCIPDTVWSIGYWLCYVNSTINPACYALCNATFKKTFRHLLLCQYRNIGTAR
Test: M4-linked GIRK flux change, two-sided – cell-based, HEK293 M4/GIRK, thallium flux, BTC-AM, M4 allosteric agonist project, primary screen (AID 625);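 further: thallium influx through GIRK channels coupled to M4 in HEK293 cells with BTC-AM dye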
Conditions: at 10 µM, actives lie on both sides
Quick list: fluorescence slope per entry.
Answer field: number only, no words.

Below are worked cases with known answers.
C#CCN1C(=O)C(O)(CC(=O)c2cccc(OC)c2)c2ccccc21 (centres undefined) :: 0.00596
O=C(Nc1ccccc1N1CCN(C(=O)c2ccc(Cl)cc2)CC1)c1cc2ccccc2o1 :: 0.00626
CCOP(=O)(c1ccc(N(C)C)cc1)C(O)c1cc(OC)c(OC)c(OC)c1 (centres undefined) :: 0.00563

What does the data say about its fluorescence slope? Entry: COc1ccc2nc(NC(=O)C(NS(=O)(=O)c3cccs3)C(C)C)sc2c1 (centres undefined) 0.00546

What does the data say about its fluorescence slope? Entry: `Nc1nc(CN2CCOCC2)cs1` 0.00598

What does the data say about its fluorescence slope? Entry: N#CC(C(=O)CCN1C(=O)C2CC=CCC2C1=O)c1nc2ccccc2[nH]1 (centres undefined) 0.00584

What does the data say about its fluorescence slope? Entry: `O=c1[nH]c2ccc(S(=O)(=O)N3CCN(C4CCCCC4)CC3)cc2[nH]c1=O` 0.00453

What does the data say about its fluorescence slope? Entry: `O=C(Nc1ccncc1)c1cncc(Br)c1` 0.00626

---

Assay: loss of swimming-algae plug formation – whole organism, Chlamydomonas reinhardtii, WT vs cilia-less mutant, absorbance, 96-well, primary screen (AID 463189);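 further: 0% = wild type cc124 cells in DMSO and 100% = ciliumless bld1 mutant cells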
Conditions: Chlamydomonas reinhardtii gravitaxis, OD600 absorbance, 2 days; at 10 µM; stronger effect = higher value
Active and inactive are the calls of the source.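 Rule for the calls: active = inhibition at or above 50% relative to wild type and mutant plate controls; inactive = inhibition below 50%.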
Quick list: inhibition per entry.

Below are worked cases with known answers.
Nc1nc(N)c2nc(CNc3ccc(C(=O)NC(CCC(=O)O)C(=O)O)cc3)cnc2n1 (configuration not stated) :: 10.5% (inactive)
N[C@@H]1CONC1=O :: 0.59% (inactive)
CCCCOc1cc(CC2CNC(=O)N2)ccc1OC (configuration not stated) :: 2.83% (inactive)
COc1ccccc1N1CCN(CCN2C(=O)CC3(CCCC3)CC2=O)CC1 :: -4.14% (inactive)

What does the data say about its inhibition? Entry: `CCOC(=O)c1ccc(CSc2ncn[nH]2)o1` 10.3% (inactive)

What does the data say about its inhibition? Entry: `COc1cc2ncnc(Nc3cccc(Cl)c3)c2cc1OC` -7.15% (inactive)

What does the data say about its inhibition? Entry: `COc1cc2c(cc1OC)[C@@H](c1ccccc1)CN(C)CC2` 8.36% (inactive)

What does the data say about its inhibition? Entry: `CC(=O)Oc1oc(-c2ccccc2)nc1/C=N/c1ccccn1` -3.91% (inactive)

What does the data say about its inhibition? Entry: `Nn1nnc2ccccc21` 1.8% (inactive)

What does the data say about its inhibition? Entry: `COC(=O)[C@@H]1[C@H]2C[C@H]3c4[nH]c5ccccc5c4CCN3C[C@@H]2CC[C@@H]1O` 8.68% (inactive)

What does the data say about its inhibition? Entry: `CC(=O)/C(C)=N/O` 1.74% (inactive)

What does the data say about its inhibition? Entry: `Nc1nc2ccc(Cl)cc2c2nc(-c3ccco3)nn12` 1.54% (inactive)
